# System: NCI-H226 lung
# Test: NCI-60 one-dose screen, 48 h
# Assay Context: 100 µM
Compounds without any hit were thinned out: in the full panel of roughly 83,000, 20% have a hit. Calls of active or inactive are those of the source. How the source made its calls: active means growth percent below 10; inactive means the rest.
Respond with a class label; see active, inactive

Completed entries (count: 3):
Smiles Input: CC(=O)/C=C/c1ccc(N(CCO)Cc2ccc(C(C)(C)C)cc2)cc1
Category Label: active
--
Smiles Input: CC(=O)/C=C/c1ccc(N(C)Cc2ccc(C(C)(C)C)cc2)cc1
Category Label: active
--
Smiles Input: CC(=O)/C=C/c1ccc(OCc2ccc(C(C)(C)C)cc2)cc1
Category Label: inactive

Recorded call for CC(=O)/C=C/c1ccc(OCc2ccc(Cl)cc2)cc1 ? inactive

What do you get for CCN(Cc1ccccc1)c1ccc(/C=C2\COc3ccccc3C2=O)cc1 ? inactive

What do you get for COc1ccc(C(=O)/C=C/c2ccc(OCc3cccc(C(F)(F)F)c3)c(OC)c2)cc1OC ? active
